Target: Nuclear receptor subfamily 1 group I member 3 (Homo sapiens)
Experiment: qHTS assay to identify small molecule agonists of the constitutive androstane receptor (CAR) signaling pathway (AID 1224839); note: nearly all actives have a fitted effect of over 15% in size;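 for activation: HepG2 cells stably carrying human CAR and a CYP2B6 luciferase reporter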
Conditions: HepG2 hCAR CYP2B6-luciferase, agonist mode, 24 h; series mostly up to 92.4 µM
Records with an inconclusive call do not appear. Calls of active or inactive are those of the source. Calls come from the whole dose curve; as a rule, active = well fitted activation curve with a large enough effect in the repeat runs; inconclusive = weak or mixed curves; inactive = no such curve, though single readings can be large or run the other way.
Form entry, call: pick from active, inactive

CC/C=C1/OC(=O)c2ccccc21
inactive
C=C/C(C)=C/C/C=C(\C)CCC=C(C)C
inactive
C=COCC(C)C
inactive
COc1ccccc1N1CCN(CC(O)COc2cccc3ccccc23)CC1 (stereo not drawn)
inactive

Assay result, entry c1csc(SSc2cccs2)c1 — outcome?
inactive

Give the logged outcome of this assay for the following compound: N#[N+]c1ccc2c(S(=O)(=O)[O-])cccc2c1O
inactive

Please share the test call associated with Cc1cccc(N(C)C(=S)Oc2ccc3c(c2)CCC3)c1 .
active

I would be grateful if you could indicate the recorded call for Cc1cc2c(OCC(CNC(C)(C)C)OC(=O)c3ccccc3)cccc2[nH]1 (stereo not drawn) .
inactive

Could you please tell me the result logged for CC(C)=CCC1C(=O)N(c2ccccc2)N(c2ccccc2)C1=O in this assay?
inactive

// param item: CC(C)Nc1cccnc1N1CCN(C(=O)c2cc3cc(NS(C)(=O)=O)ccc3[nH]2)CC1 ; yields the recorded call
inactive

Please state the recorded outcome for this compound: Nc1ncnc2c1ncn2[C@H]1CC[C@@H](CO)O1
inactive

Recorded call for Cc1ccc(CO)cc1 ?
inactive

Hello, I am checking results. What call was entered for CCOC(=O)C1=C(C)NC(C)=C(C(=O)OC)C1c1cccc(Cl)c1Cl (stereo not drawn) ?
inactive

* * *

Experiment: qHTS assay to identify small molecule antagonists of the progesterone receptor (PR) signaling pathway - cell viability counter screen (AID 1346798); note: nearly all actives have a fitted effect of over 50% in size
Conditions: PR-UAS-bla HEK293T viability, CellTiter-Glo luminescence, 16 h; series mostly up to 92.4 µM
Records with an inconclusive call do not appear. Calls of active or inactive are those of the source. The call rests on the fitted dose curve; in most records, active means well fitted cell-killing curve with a large enough effect in the repeat runs; inconclusive means weak or mixed curves, or effect the other way; inactive means no such curve, though single readings can be large or run the other way.
Return exactly one item of True (active), False (inactive)

Study these solved cases before continuing.
CCC(C)COC(=O)CC(C)C (centres undefined)
True
CCOC(=O)[C@H](CCc1ccccc1)N[C@@H](C)C(=O)N(CC(=O)O)C1Cc2ccccc2C1
True
CCOC(=O)/C=C/C(=O)OCC
False

// param item: CCC=CC#N ; yields the recorded call
False

What did this assay record as the result for C=C/C(C)=C/C/C=C(\C)CCC=C(C)C ?
False

Any idea what this test logged for O=C1c2ccccc2C(=O)C1c1ccc(Br)cc1 ?
False

Answer briefly: the call reported for O=C1c2ccccc2C(=O)N1CCc1noc(-c2ccc(CN3CCCCCC3)s2)n1 in this assay.
False

Could you check what this test reported for COC(=O)CS ?
False

Short answer needed: outcome of this test for CN(C)CCN1C(=O)c2ccccc2N(C)c2ccccc21 ?
False

Status in this test for C(=C\c1ccccc1)/c1ccccc1 ?
False

Could you kindly confirm the outcome this assay logged for CC(=O)OCCN(CCOC(C)=O)c1ccc(N=Nc2ccc([N+](=O)[O-])cc2C#N)cc1 ?
False

For CCOC(=O)c1ccc(I)cc1 , what call appears in the results of this test?
False

Recorded call for CN1C(=O)OC(C)(C)C1=O ?
False

Identify the outcome logged in this assay for the compound shown: Cc1ccco1
False

Call for entry CC(C)c1nc(CN(C)C(=O)N[C@H](C(=O)N[C@@H](Cc2ccccc2)C[C@H](O)[C@H](Cc2ccccc2)NC(=O)OCc2cncs2)C(C)C)cs1 :
True

Tell me the recorded outcome of this test for CC=C(Cl)Cl .
False

// outcome(item) with item = C=Cc1ccc(S(=O)(=O)O)cc1
False
